Reference source for all entries: patent US20060257938A1

assay: Probe fluorescence ratio response to linolenic acid relative to ADIFAB2; assay type: binding; conditions: Table 5
In this section we review reported ΔR/DRAΔ2 LNA values for a set of molecules.

{"columns": ["molecule", "ΔR/DRAΔ2 LNA"],
 "data": [
  ["L2P23G7: FABP probe, substitutions M18V G31F F55L vs SEQ ID NO: 2 (protein, listed as Rattus norvegicus, PEPTIDE (1)...(131) wild-type rat intestinal fatty acid binding protein) AFDGTWKVDRNENYEKFVEKMGINVVKRKLFAHDNLKLTITQEGNKFTVKESSNLRNIDVVFELGVDFAYSLADGTELTGTWTMEGNKLVGKFKRVDNGKELIAVREISGNELIQTYTYEGVEAKRIFKKE", 1.2],
  ["L2P11B4: FABP probe, substitutions M18V G31A A73W vs SEQ ID NO: 2 (protein, listed as Rattus norvegicus, PEPTIDE (1)...(131) wild-type rat intestinal fatty acid binding protein) AFDGTWKVDRNENYEKFVEKMGINVVKRKLAAHDNLKLTITQEGNKFTVKESSNFRNIDVVFELGVDFAYSLWDGTELTGTWTMEGNKLVGKFKRVDNGKELIAVREISGNELIQTYTYEGVEAKRIFKKE", 2.8],
  ["L2P22E6: FABP probe, substitutions M18V G31A F55I A73W vs SEQ ID NO: 2 (protein, listed as Rattus norvegicus, PEPTIDE (1)...(131) wild-type rat intestinal fatty acid binding protein) AFDGTWKVDRNENYEKFVEKMGINVVKRKLAAHDNLKLTITQEGNKFTVKESSNIRNIDVVFELGVDFAYSLWDGTELTGTWTMEGNKLVGKFKRVDNGKELIAVREISGNELIQTYTYEGVEAKRIFKKE", 1.6],
  ["L2P8A5: FABP probe, substitutions M18V G31A F55W A73W vs SEQ ID NO: 2 (protein, listed as Rattus norvegicus, PEPTIDE (1)...(131) wild-type rat intestinal fatty acid binding protein) AFDGTWKVDRNENYEKFVEKMGINVVKRKLAAHDNLKLTITQEGNKFTVKESSNWRNIDVVFELGVDFAYSLWDGTELTGTWTMEGNKLVGKFKRVDNGKELIAVREISGNELIQTYTYEGVEAKRIFKKE", 1.9],
  ["L2P7F4: FABP probe, substitutions M18V G31V A73I vs SEQ ID NO: 2 (protein, listed as Rattus norvegicus, PEPTIDE (1)...(131) wild-type rat intestinal fatty acid binding protein) AFDGTWKVDRNENYEKFVEKMGINVVKRKLVAHDNLKLTITQEGNKFTVKESSNFRNIDVVFELGVDFAYSLIDGTELTGTWTMEGNKLVGKFKRVDNGKELIAVREISGNELIQTYTYEGVEAKRIFKKE", 1.5]
]}
